Tested on: SK-MEL-2 melanoma
Test: NCI-60 one-dose screen, 48 h
Conditions: 10 µM unless noted
About 83,000 compounds went through this panel and 20% of them were active in at least one assay; those are over-represented in the sample as a whole. Active and inactive are the calls of the source. How the source made its calls: active means growth percent below 10; inactive means the rest.
Answer with one of the outcomes YES (active), NO (inactive)

{"Molecule": "Nc1ccc2c(c1)Cc1cc(N)ccc1-2", "Class Name": "NO"}
{"Molecule": "O=C=Nc1ccc(Br)cc1", "Class Name": "NO"}
{"Molecule": "C[C@]12CCC3[C@@H](C[C@@H]4SC(Nc5ccccc5)=N[C@@]45CC(=O)CC[C@]35C)[C@@H]1CCC2=O (stereo partly specified)", "Class Name": "YES"}
{"Molecule": "C[N+]1(CC#CC[N+]2(C)CCCC2)CCCC1", "Class Name": "NO"}
{"Molecule": "O=C(Cc1ccccc1)NC(O)C(Cl)(Cl)Cl (stereo unspecified)", "Class Name": "NO"}

With those in mind, consider the next molecule.
# fetch the recorded call for CC[C@H](C)[C@H](NC(=O)[C@H]1CCCCN1C)C(=O)N(C)[C@H](CCc1nc(C(=O)N[C@@H](Cc2ccccc2)C[C@H](C)C(=O)O)cs1)C(C)C here
NO

###

Known growth of a selection of compounds
Test system: A549/ATCC NSCLC
Assay: NCI-60 one-dose screen, 48 h (100 = growth as untreated, 0 = no growth, -100 = all killed)
Conditions: 10 µM unless noted
This is part of a sample that, as a whole, favours compounds with a hit. Of some 83,000 tested, about 20% had one in any assay. Activity calls are given as the source filed them. How the source made its calls: active means growth percent below 10; inactive means the rest.

Use the examples below as a reference point.
{"Compound": "CNC(=O)CCl", "growth": "96.3% (inactive)"}
{"Compound": "C[C@]12CCc3nc(-c4ccc(O)c(O)c4)sc3C1=CC[C@@H]1[C@@H]2CC[C@]2(C)C(=O)CC[C@@H]12", "growth": "61.2% (inactive)"}
{"Compound": "Cc1nnc([S-])o1.[Au+].c1ccc([PH+](c2ccccc2)c2ccccc2)cc1", "growth": "76.4% (inactive)"}
{"Compound": "C[C@]12C[C@H](c3ccoc3)OC(=O)[C@H]1CC[C@@]1(C)[C@@H]2[C@H]2C=C[C@]1(O)C(=O)O2", "growth": "84.5% (inactive)"}
{"Compound": "COc1ccc(N)cc1N", "growth": "118% (inactive)"}
{"Compound": "COc1ccc2c(c1)c(-c1nc(-c3cn(C)c4ncccc34)cs1)cn2CCCCN1CCOCC1", "growth": "48.3% (inactive)"}
{"Compound": "CCCCOC(N)=O", "growth": "109% (inactive)"}
{"Compound": "N#Cc1ccc(Cl)cc1", "growth": "103% (inactive)"}

Query compound follows.
Look up and state reported growth for Cc1cc[c-]cc1.Fc1c[c-]c(-c2ccccn2)c(F)c1.N#CCC[PH+](CCC#N)c1ccccc1.[Pt+2]
50.5% (inactive)

###

System: SF-539 CNS
Assay: NCI-60 one-dose screen, 48 h (100 = growth as untreated, 0 = no growth, -100 = all killed)
Details: 10 µM unless noted
Compounds without any hit were thinned out: in the full panel of roughly 83,000, 20% have a hit.
Quantity Name: growth (%)
Give just the numeric value; % need not be written.

{"Compound": "CC1(C)N(Nc2ccccc2)C(=O)C2CCCN21 (configuration not stated)", "growth [%]": 89.3}
{"Compound": "OCCNC1CCCCC1", "growth [%]": 103}
{"Compound": "Cc1cc2c(cc1-c1ccnc(/C=C/C(=O)O)c1)C(C)(C)CCC2(C)C", "growth [%]": 78.2}
{"Compound": "O=C(Cc1ccccc1)NC(O)C(Cl)(Cl)Cl (configuration not stated)", "growth [%]": 108}
{"Compound": "C[N+]1(CC#CC[N+]2(C)CCCC2)CCCC1", "growth [%]": 105}

Look up and state reported growth for CC1=C([Te]c2ccccc2)C(=O)c2ccccc2C1=O
-71.4

Look up and state reported growth for O=C1C=C(N2CC2)c2ccccc2C1=O
63.3

Look up and state reported growth for CCOP(=O)(NC)OCC
101

Look up and state reported growth for N#CCN(CC#N)[N+](=O)[O-]
102

Look up and state reported growth for C[C@]12CCc3sc(Nc4ccc(F)cc4F)nc3C1=CC[C@@H]1[C@@H]2CC[C@]2(C)C(=O)CC[C@@H]12
49.6
